- Test system: G. duodenalis BRIS/91/HEPU/1279
- TEST: Primary Giardia screen at 10 µM (live-cell imaging, automated counting)
- Format: cell-based, Giardia duodenalis
- EXPERIMENTAL_CONDITIONS: 48 h, first singlicate assay
MEASURED_METRIC: % Inhibition n=1 48h (%)

In [3]: df
Out[3]:
                                    compound  result_number
 0  COC(=O)c1ccc(Cn2c(-c3nnc(C(C)C)o3)cc3ccccc32)cc1 [SN00789282]            4.4
 1  Cn1c(C2CCN(C(=O)Nc3ccccc3F)CC2)cc(=O)n2nccc12 [SN00798982]            3.2
 2  Cn1ncc2c1CCCC2NC(=O)N1CCCCC(N2CCCC2)C1 (stereo not drawn) [SN00781466]           13.9
 3  O=C(O)c1cccc(Nc2nc(Nc3ccccc3)nc(N3CCCC3)n2)c1 [SN00783666]            0.3
 4  COC(=O)C(C)n1cnc2c(nnn2Cc2ccc(C)cc2)c1=O (stereo not drawn) [SN00802538]            3.2
 5  COc1ccc(CCNC(=O)C2c3ccccc3C(=O)N2Cc2ccc(C)cc2)cc1OC (stereo not drawn) [SN00794542]            6.3
 6  Cc1ccc(COCc2nn(C)c3c2CN(C(=O)Nc2ccccc2)CC3)cc1 [SN00796435]            0.0
 7  Cc1ccccc1Nc1nc(N)nc(CN2C(=O)NC(C)(c3cccc4ccccc34)C2=O)n1 (stereo not drawn) [SN00773551]           21.3
 8  COc1cccc(C(=O)N(CC2CCOC2)C2CC2)c1 (stereo not drawn) [SN00801182]            0.0
 9  CC1Cc2cc(S(=O)(=O)N3CCn4c3nc3ccccc34)ccc2N1C(=O)C1CCC1 (stereo not drawn) [SN00788031]           10.8
10  CCc1ccc(-c2cc(C(=O)N3CCN(c4c(C)n(-c5ccccc5)c(=O)n(C)c4=O)CC3)[nH]n2)cc1 [SN00790031]            0.0
11  O=C(NCc1ccc2c(c1)CCN2C(=O)c1ccccc1)C1CCN(S(=O)(=O)N2CCCC2)CC1 [SN00793589]            7.9
12  COc1ccc(-c2nc(CN3C(=O)C(=O)N(C(C)C)C3=O)cs2)cc1 [SN00769384]            0.0
13  CN1CCC(OC2CCN(C(=O)CC3CCCC3)CC2)CC1 [SN00801545]           26.4
14  COCCNc1c(-c2ccc(O)cc2)nc2sc3cc(C)ccc3n12 [SN00795351]            0.0
15  CCCCCCNC(=O)Cc1c(C)nc2c(-c3ccccc3)c(C)nn2c1C [SN00785656]           17.0
16  CNC1(c2nnnn2-c2ccc(OC)cc2)CCCCC1 [SN00794158]           11.8
17  Cc1ccc(N2CCCN(C(=O)CN(C)C3CC3)CC2)nn1 [SN00772050]           11.9

====

- Tested on: G. duodenalis BRIS/91/HEPU/1279
- TEST: Primary Giardia screen at 10 µM (live-cell imaging, automated counting)
- Assay type: cell-based, Giardia duodenalis
- EXPERIMENTAL_CONDITIONS: 48 h, first singlicate assay
If the reported % Inhibition n=1 48h equals or exceeds 20%, assign 1.0. If not, assign 0.0.

>>> print(df.to_string())
                                   molecule                    target_system  group_label
0  COCC(=O)N1CCc2c(c(COCc3ccc(C)cc3)nn2C)C1 [SN00796424]  G. duodenalis BRIS/91/HEPU/1279          0.0
1  Cc1oc(-c2ccccc2)nc1C(=O)N1CCN(S(=O)(=O)c2ccc(Br)s2)CC1 [SN00769595]  G. duodenalis BRIS/91/HEPU/1279          1.0
2  O=S1(=O)CCC(Nc2nc(-c3ccccn3)nc3scc(-c4ccccc4)c23)C1 (stereo not drawn) [SN00776030]  G. duodenalis BRIS/91/HEPU/1279          1.0
3  CCCOc1ccc(C2OCCn3c(-c4ccc(OC)cc4)c4c(=O)n(C)c(=O)n(C)c4c32)cc1 (stereo not drawn) [SN00786016]  G. duodenalis BRIS/91/HEPU/1279          0.0
4  Cc1cccc(-c2nc3sc(N4CCCCC4)nn3c2NC(=O)C2CC2)c1 [SN00799546]  G. duodenalis BRIS/91/HEPU/1279          1.0
5  CC(=O)N1CCCN(Cc2ncc(Cl)n2C)CC1 [SN00771536]  G. duodenalis BRIS/91/HEPU/1279          1.0
6  CCOC(=O)c1c(NC(=O)CN2C(=O)COc3ccc(Cl)cc32)sc2c1CCCC2 [SN00783847]  G. duodenalis BRIS/91/HEPU/1279          1.0
7  O=C(C1CC1)N1CCCCCC1C1CCN(c2nccc(C(F)(F)F)n2)CC1 (stereo not drawn) [SN00773266]  G. duodenalis BRIS/91/HEPU/1279          0.0
8  Cc1noc(-c2c(C)sc(C)c2S(=O)(=O)NCc2ccccc2)c1C [SN00789144]  G. duodenalis BRIS/91/HEPU/1279          1.0

Reference source for all entries: paper PMC9775191
